Data origin: patent US5610303A

- assay_system: UniProt P21396
- Sequence (P21396 1-526): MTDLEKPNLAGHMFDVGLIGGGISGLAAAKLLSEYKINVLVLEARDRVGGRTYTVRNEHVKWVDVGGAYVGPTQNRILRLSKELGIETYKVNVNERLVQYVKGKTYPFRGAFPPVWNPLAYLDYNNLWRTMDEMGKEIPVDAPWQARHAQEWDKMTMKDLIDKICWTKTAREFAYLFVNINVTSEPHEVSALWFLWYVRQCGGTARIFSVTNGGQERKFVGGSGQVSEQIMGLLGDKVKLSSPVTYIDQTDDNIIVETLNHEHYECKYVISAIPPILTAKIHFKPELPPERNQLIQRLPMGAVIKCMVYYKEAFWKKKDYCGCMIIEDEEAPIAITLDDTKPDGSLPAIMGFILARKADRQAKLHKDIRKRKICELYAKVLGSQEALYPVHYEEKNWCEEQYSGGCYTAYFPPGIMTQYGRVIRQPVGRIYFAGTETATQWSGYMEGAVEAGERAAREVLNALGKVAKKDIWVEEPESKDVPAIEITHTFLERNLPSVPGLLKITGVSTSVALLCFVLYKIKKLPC

molecule | IC50 / nM
O=C(CCC1CCN(Cc2ccccc2)CC1)c1ccc(Nc2ncnc3c2CCC3)cc1 [Example 8] | 85
CCc1cncnc1Nc1ccc(C(=O)CC2CCN(Cc3ccccc3)CC2)cc1 [Example 93] | 420
Cc1cncnc1Nc1ccc(C(=O)CC2CCN(Cc3cccs3)CC2)cc1 [Example 88] | 250
Cc1ncnc(Nc2ccc(C(=O)CCC3CCN(Cc4ccccc4)CC3)cc2)c1C [Example 2] | 890
O=C1C(=CC2CCN(Cc3ccccc3)CC2)Cc2cc(Nc3ncnc4c3CCC4)ccc21 [Example 21] | 600
O=C(CC1CCN(Cc2ccccc2)CC1)c1ccc(Nc2ncnc3c2CCC3)cc1 [Example 26] | 56
O=C(CC1CCN(Cc2cccs2)CC1)c1ccc(Nc2ncnc3c2CCC3)cc1 [Example 87] | 35

====

- assay_system: B type monoamine oxidase (Rattus norvegicus, UniProt P19643)
- Sequence (P19643 1-520): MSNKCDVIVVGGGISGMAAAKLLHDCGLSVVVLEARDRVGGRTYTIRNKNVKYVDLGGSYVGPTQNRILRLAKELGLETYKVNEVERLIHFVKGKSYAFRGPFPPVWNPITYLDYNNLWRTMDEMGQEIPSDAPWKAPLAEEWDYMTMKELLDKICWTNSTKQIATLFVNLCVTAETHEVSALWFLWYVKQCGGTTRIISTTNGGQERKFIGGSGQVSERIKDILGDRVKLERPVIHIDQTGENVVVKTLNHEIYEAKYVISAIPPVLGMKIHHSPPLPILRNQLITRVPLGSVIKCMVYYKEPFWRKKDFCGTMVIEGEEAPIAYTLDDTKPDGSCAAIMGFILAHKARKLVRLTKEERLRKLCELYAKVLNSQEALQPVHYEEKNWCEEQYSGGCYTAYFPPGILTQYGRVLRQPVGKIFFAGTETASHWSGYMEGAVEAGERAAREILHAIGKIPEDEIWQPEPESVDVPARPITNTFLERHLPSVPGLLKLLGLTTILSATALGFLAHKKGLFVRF
pIC50: −log10 of the molar value.

chem_smiles | assay_system | qualifier_operator | pIC50
O=C(CCC1CCN(Cc2ccccc2)CC1)c1ccc(Nc2ncnc3c2CCC3)cc1 | B type monoamine oxidase (Rattus norvegicus, UniProt P19643) | < | 5.00
Cc1cncnc1Nc1ccc(C(=O)CC2CCN(Cc3ccccc3)CC2)cc1 | B type monoamine oxidase (Rattus norvegicus, UniProt P19643) | = | 5.17
O=C(CCC1CCN(Cc2ccccn2)CC1)c1ccc(Nc2ncnc3c2CCC3)cc1 | B type monoamine oxidase (Rattus norvegicus, UniProt P19643) | < | 5.00
CCc1cncnc1Nc1ccc(C(=O)CC2CCN(Cc3ccccc3)CC2)cc1 | B type monoamine oxidase (Rattus norvegicus, UniProt P19643) | = | 5.14
O=C(CC1CCN(Cc2cccs2)CC1)c1ccc(Nc2ncnc3c2CCC3)cc1 | B type monoamine oxidase (Rattus norvegicus, UniProt P19643) | < | 5.00
